- TGT: TNAP (Homo sapiens, UniProt P05186)
- Construct: made in house; host or cells: COS-1 cells, transient expression; dialyzed serum-free conditioned medium
- Sequence (P05186 18-501 limits assumed): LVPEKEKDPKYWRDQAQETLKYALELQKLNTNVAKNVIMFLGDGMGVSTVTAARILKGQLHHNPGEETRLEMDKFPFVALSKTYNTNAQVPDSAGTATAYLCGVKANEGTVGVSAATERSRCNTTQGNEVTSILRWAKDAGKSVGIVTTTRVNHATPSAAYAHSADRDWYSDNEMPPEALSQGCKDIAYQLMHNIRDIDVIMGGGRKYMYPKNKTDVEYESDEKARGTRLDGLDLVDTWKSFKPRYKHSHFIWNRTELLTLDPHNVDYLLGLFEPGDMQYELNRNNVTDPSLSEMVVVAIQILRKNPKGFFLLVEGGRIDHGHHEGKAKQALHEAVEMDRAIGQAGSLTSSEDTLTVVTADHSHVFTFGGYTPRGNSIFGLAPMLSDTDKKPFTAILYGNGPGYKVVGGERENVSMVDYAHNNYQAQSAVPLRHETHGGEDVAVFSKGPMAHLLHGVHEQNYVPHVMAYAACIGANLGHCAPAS
- TEST DESCRIPTION: TNAP colorimetric assay (pNPP substrate, OD405, 1M DEA)
- Format: biochemical
- CONDITION LABEL: fresh solid samples from vendors; read-out: IC50 SAR-Color
ASSAY READOUT: IC50 (µM)

A = Oc1cc(-c2cccc3ccccc23)[nH]n1
B = COc1ccc(C)cc1S(=O)(=O)Nc1cccnc1
// compare measured IC50, left A , right B , return larger Choose, then provide that item's label.
A

====

- TGT: IAP (Homo sapiens, UniProt P09923)
- Construct: made in house; host or cells: COS-1 cells, transient expression; dialyzed serum-free conditioned medium
- Sequence (P09923 20-503 limits assumed): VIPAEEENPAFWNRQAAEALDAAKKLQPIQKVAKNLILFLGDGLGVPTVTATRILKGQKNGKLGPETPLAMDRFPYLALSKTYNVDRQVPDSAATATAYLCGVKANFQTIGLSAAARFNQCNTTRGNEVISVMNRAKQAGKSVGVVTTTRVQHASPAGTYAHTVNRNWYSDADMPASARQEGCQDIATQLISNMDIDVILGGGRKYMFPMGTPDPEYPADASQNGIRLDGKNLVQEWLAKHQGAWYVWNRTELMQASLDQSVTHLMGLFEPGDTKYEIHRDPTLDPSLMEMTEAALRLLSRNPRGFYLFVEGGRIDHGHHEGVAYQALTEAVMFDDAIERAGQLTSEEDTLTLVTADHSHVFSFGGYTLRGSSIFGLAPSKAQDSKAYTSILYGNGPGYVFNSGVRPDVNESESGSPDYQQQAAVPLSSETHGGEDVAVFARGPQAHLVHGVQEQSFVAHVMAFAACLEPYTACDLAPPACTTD
- TEST DESCRIPTION: IAP luminescent assay (CDP-star)
- Format: biochemical
ASSAY READOUT: selectivity for IAP over TNAP (fold)

1) O=C1C2CC=CCC2C(=O)N1c1nnc(-c2cccnc2)[nH]1 (stereo not shown) [MLS-0091977]: 6

P = O=C1C2CC=CCC2C(=O)N1c1nnc(CCc2ccccc2)[nH]1 (stereo not shown) [MLS-0091987]
Q = O=C1C2CC=CCC2C(=O)N1c1nc(-c2ccccc2)n[nH]1 (stereo not shown) [CID-2946732]
R = O=C1C2CC=CCC2C(=O)N1c1nnc(-c2ccco2)[nH]1 (stereo not shown) [MLS-0091966]
Hey, can you sort those compounds up there by selectivity for IAP over TNAP, smallest first? # answer = labels listed in requested order
Q, R, P
(Q: 7 fold, R: 10 fold, P: 40 fold)

====

- TGT: human PLAP (Homo sapiens, UniProt P05187)
- Construct: made in house; host or cells: COS-1 cells, transient expression; dialyzed serum-free conditioned medium
- Sequence (P05187 23-506 limits assumed): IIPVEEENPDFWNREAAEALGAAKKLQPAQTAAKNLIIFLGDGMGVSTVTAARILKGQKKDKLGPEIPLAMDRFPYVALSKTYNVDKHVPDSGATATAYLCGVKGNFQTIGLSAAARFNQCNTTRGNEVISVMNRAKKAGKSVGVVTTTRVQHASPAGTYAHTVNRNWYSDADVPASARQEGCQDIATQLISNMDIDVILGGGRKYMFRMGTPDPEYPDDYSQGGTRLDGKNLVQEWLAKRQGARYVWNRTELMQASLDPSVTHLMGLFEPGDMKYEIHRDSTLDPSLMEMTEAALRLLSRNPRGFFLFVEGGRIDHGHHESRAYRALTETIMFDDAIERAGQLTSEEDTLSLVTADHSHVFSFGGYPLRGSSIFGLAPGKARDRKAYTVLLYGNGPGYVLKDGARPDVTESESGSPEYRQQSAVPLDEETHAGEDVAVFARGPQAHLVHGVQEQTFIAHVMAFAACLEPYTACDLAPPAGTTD
- TEST DESCRIPTION: PLAP luminescent assay (CDP-star)
- Format: biochemical
- CONDITION LABEL: unit not given in Table 8; n=3; read-out: PLAP-Lumi
ASSAY READOUT: pIC50
Scale note: pIC50 = -log10(concentration in M).

Item under review: O=C1C2CC=CCC2C(=O)N1c1nc(-c2ccccc2)n[nH]1 (stereo not shown) [CID-2946732] . Reported pIC50?
5.32

====

- TGT: human PLAP (Homo sapiens)
- Construct: made in house; host or cells: COS-1 cells, transient expression; dialyzed serum-free conditioned medium
- TEST DESCRIPTION: PLAP luminescent assay (CDP-star)
- Format: biochemical
- CONDITION LABEL: catechol series; read-out: PLAP IC50
ASSAY READOUT: IC50 (µM)

1) O=C(Cn1ccnc1)c1ccc(O)c(O)c1 [Compound 1]: 2.1

1 = CCc1nccn1CC(=O)c1ccc(O)c(O)c1 [MLS-0315848]
2 = O=C(CNc1nc2ccccc2[nH]1)c1ccc(O)c(O)c1 [Compound 2]
Problem: Given the entries 1 and 2 , determine which has the lower reported IC50. State your choice using its label.
1

====

- TGT: IAP (Homo sapiens, UniProt P09923)
- Construct: made in house; host or cells: COS-1 cells, transient expression; dialyzed serum-free conditioned medium
- TEST DESCRIPTION: IAP luminescent assay (CDP-star)
- Type: biochemical
- CONDITION LABEL: phtalimide triazole series; read-out: IC50 IAP-Lumi
ASSAY READOUT: IC50 (nM)

Sample answers from the record:
1. O=C1C2CC=CCC2C(=O)N1c1nnc(-c2ccco2)[nH]1 (stereo not drawn): 410
2. O=C1C2CC=CCC2C(=O)N1c1n[nH]c(Cc2ccccc2)n1 (stereo not drawn): 540
3. O=C1C2CC=CCC2C(=O)N1c1nc(-c2ccccc2)n[nH]1 (stereo not drawn): 120

A = O=C1C2CC=CCC2C(=O)N1c1nnc(CCc2ccccc2)[nH]1 (stereo not drawn)
B = O=C1C2CCCCC2C(=O)N1c1nc(Cc2ccccc2)n[nH]1 (stereo not drawn)
Name the one with the greater IC50 value, either A or B as given. Pick one and reply with its label.
B
(B: 1100 nM, A: 720 nM)

Cited source for all entries: paper PMC3392958
